# assaySummary: qHTS for induction of synthetic lethality in tumor cells producing 2HG: qHTS for the HT-1080-NT fibrosarcoma cell line;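 note: NT is the 2HG producing partner of a matched IDH1 knockdown line; nearly all actives have a fitted effect of over 55% in size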
# conditionParameters: HT-1080-NT fibrosarcoma viability, CellTiter-Glo ATP luminescence, 48 h; series mostly up to 46.1 µM
About 6,000 (1.7%) of roughly 360,000 compounds were called active. Inconclusive results (about 8%) are left out. Calls come from the whole dose curve; as a rule, active = well fitted cell-killing curve with a large enough effect; inconclusive = small, poorly fitted or top-dose-only effect, or effect the other way; inactive = flat fitted curve, though single readings scatter. Many of the other results were omitted from the sample, so actives are more common in it than they were.
Outcomes: active, inactive

molecule="CC1([N+](=O)[O-])COP(=O)(Nc2ccc(F)cc2)OC1 (stereo not drawn)" classification=inactive
molecule=COC(=O)C1=C(c2ccc(OCc3ccccc3)cc2)C[C@@H]2CC[C@H]1N2C(=O)NCc1ccc(Cl)cc1 classification=inactive
molecule=CCOC(=O)[C@]12Cc3cc(OC)ccc3[C@H]1N(C(C)C)C(=O)c1ccccc12 classification=active
molecule=S=C(NCCc1ccccc1)N1Cc2cc(N3CCOCC3)ccc2-n2nncc2C1 classification=inactive
molecule="O=[N+]([O-])c1ccc(C2C3C(c4ccccc4)=NC4(CCCCC4)N32)cc1 (stereo not drawn)" classification=inactive
molecule=COC(=O)C1=C(c2ccc(Cl)c(C(F)(F)F)c2)C[C@@H]2CC[C@H]1N2C(=O)NC1CC1 classification=inactive
molecule="CC(=O)OC1C2(CC3N4C(=O)C5(CO)SSC4(CC31O)C(=O)N5C)OC(C)C(C)(C)C2=O (stereo not drawn)" classification=active
molecule=COC1=C[C@@H]2[C@@H]3Cc4ccc(OC)c(O)c4[C@]2(CCN3C)CC1=O classification=inactive
molecule=c1ccc(C(CN2CCCCC2)c2ccccc2)cc1 classification=inactive
molecule=CCN1C(=O)NC(=O)C2(CCCC2)C1=O classification=inactive
molecule=O=C1C2CCN(CC2)C1(CO)CO classification=inactive
molecule="COC(=O)CN(CCCl)P1(=O)OCCCN1CCCl (stereo not drawn)" classification=inactive
molecule=COC(=O)C[C@H]1CC[C@H]2NC[C@@H](O)COC[C@@H]2O1 classification=inactive
molecule="O=c1[nH]c2ccccc2n1C1CCN(C(c2ccccc2)c2nnnn2Cc2ccccc2)CC1 (stereo not drawn)" classification=active
molecule=Cc1cc(-c2ccc(N)c(C)c2)ccc1N classification=inactive
molecule=CC(C)CN1Cc2cc(N3CCCCC3)ccc2-n2nncc2C1 classification=inactive
molecule=Cc1c(Oc2cc(NN3CCCCC3)c([N+](=O)[O-])cc2[N+](=O)[O-])cccc1[N+](=O)[O-] classification=inactive
molecule=Cc1ccc(OC(=O)N(C)C[C@@H]2OCc3cnnn3CCCC(=O)N([C@H](C)CO)C[C@@H]2C)cc1 classification=inactive
molecule=COc1ccc2c3c1O[C@H]1C[C@@H](O)C=C[C@@]31CCN(C)C2 classification=active
molecule=CCc1cccc2c(C#N)cn(CC(=O)N3CCOCC3)c12 classification=inactive
molecule=Cc1nc2ccccc2c(=O)n1-c1ccc(Cl)cc1Cl classification=inactive
molecule=Cc1ccc(Cn2nnnc2CN2CCC(n3nnc4ccccc43)CC2)cc1 classification=inactive
molecule="COC1=CC=C2[C@H]3Cc4ccc(OC)c5c4[C@@]2(CCN3C)C1O5 (stereo partly drawn)" classification=inactive
molecule=O=[N+]([O-])c1ccc(Cl)c(Cl)c1 classification=inactive
molecule=CCOC(=O)CNC(=O)N1Cc2cc(N3CCCCC3)ccc2-n2nncc2C1 classification=inactive
molecule="CC[C@H]1CC2CN3CCc4c([nH]c5ccccc45)C(C(=O)OC)(C2)C13 (stereo partly drawn)" classification=inactive
molecule=CC(=O)c1c(O)n(C2CCCCCC2)c(=O)[nH]c1=O classification=inactive
molecule=COc1cc(C(=O)N2Cc3ccc(Br)cc3-n3nncc3C2)cc(OC)c1OC classification=inactive
molecule=O=c1c2ccccc2nc(/C=C/c2ccc(F)cc2)n1-c1ccccc1O classification=active
molecule="COc1ccc(C2C=C(C)Oc3c2c(=O)oc2ccccc32)cc1OC (stereo not drawn)" classification=inactive
molecule=O=C(NC1CCCCC1)N1Cc2cc(N3CCCCC3)ccc2-n2nncc2C1 classification=inactive
molecule=Nc1ccc(Cc2ccc(N)c(Cl)c2)cc1Cl classification=inactive
molecule=O=c1c2ccccc2nc(/C=C/c2ccco2)n1-c1ccccc1O classification=inactive
molecule=C[C@H]1CN([C@@H](C)CO)C(=O)CCCn2nncc2CO[C@H]1CN(C)C(=O)Oc1cccc2ccccc12 classification=inactive
molecule="CSCCC(c1nnnn1C(C)(C)C)N1CCC(n2c(=O)[nH]c3ccccc32)CC1 (stereo not drawn)" classification=inactive
molecule="COc1cc(C2c3cc4c(cc3C(O)C3COC(=O)C23)OCO4)cc(OC)c1OC (stereo not drawn)" classification=active
molecule=COC(=O)C1=C(c2ccccc2)C[C@@H]2CC[C@H]1N2C(=O)NCc1ccco1 classification=inactive
molecule=COc1ccc(NC(=O)N2Cc3ccccc3-n3nncc3C2)cc1 classification=inactive

These measurements were taken from PubChem BioAssay AID686970.
